System: biotinyl-Ile-oxazolone
Protocol Details: self-aminoacylation, catalytic enhancement (BIO) (fold over background); higher = more active; k-Seq, kA / k0A0; sequences stand for … in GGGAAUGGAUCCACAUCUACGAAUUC…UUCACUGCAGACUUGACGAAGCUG
Fewer inactive variants are shown than the library holds.
Measurement Label: self-aminoacylation
Output: the number by itself.

Here are 8 sequences together with their reported answers.
AUGACCCUGGUCAACGAGUGA [Fam2.1 aminoacylation ribozyme variant] = 3.48
CUACUUCAAACAUUCUGUCUG [Fam1A.1 aminoacylation ribozyme variant] = 0.822
AUUACCCUGUUCUUCGAGUGA [Fam2.1 aminoacylation ribozyme variant] = 3.05
AACUUUGCUGAUAGUCGCAAG [Fam3.1 aminoacylation ribozyme variant] = 2.81
CCACACUUCACGCAAUCUGUC [Fam1B.1 aminoacylation ribozyme variant] = 0.481
AUUACCCUGCCCAUCGAGUGA [Fam2.1 aminoacylation ribozyme variant] = 2.94
CCACACUUCAAGCAAUCCUUC [Fam1B.1 aminoacylation ribozyme variant] = 0.89
AAGUUUGAUAAUAGUCGCAAC [Fam3.1 aminoacylation ribozyme variant] = 0.926

Read the next record carefully.
Form field: reported self-aminoacylation of AAAUUUGGUAAUAGUCGCAAG [Fam3.1 aminoacylation ribozyme variant]
2.2

Data provenance: the supplement of paper PMC9233669
